Target: AxCT mask27 EpCAM H90.2 L040 version 1
We begin with a simple list: items and their reported Percent cleavage.
Please state the number and follow it with the unit.

Q. Given the protein MMP-1 (protein) FVLTEGNPRWEQTHLTYRIENYTPDLPRADVDHAIEKAFQLWSNVTPLTFTKVSEGQADIMISFVRGDHRDNSPFDGPGGNLAHAFQPGPGIGGDAHFDEDERWTNNFREYNLHRVAAHELGHSLGLSHSTDIGALMYPSYTFSGDVQLAQDDIDGIQAIYGRSQNPVQPIGPQTPKACDSKLTFDAITTIRGEVMFFKDRFYMRTNPFYPEVELNFISVFWPQLPNGLEAAYEFADRDEVRFFKGNKYWAVQGQNVLHGYPKDIYSSFGFPRTVKHIDAALSEENTGKTYFFVANKYWRYDEYKRSMDPGYPKMIAHDFPGIGHKVDAVFMKDGFFYFFHGTRQYKFDPKTKRILTLQKANSWFNCRKN , what is its reported Percent cleavage?
A. 0%

Here is the next item to consider.
Q. Given the protein MMP-7 (protein) YSLFPNSPKWTSKVVTYRIVSYTRDLPHITVDRLVSKALNMWGKEIPLHFRKVVWGTADIMIGFARGAHGDSYPFDGPGNTLAHAFAPGTGLGGDAHFDEDERWTDGSSLGINFLYAATHELGHSLGMGHSSDPNAVMYPTYGNGDPQNFKLSQDDIKGIQKLYGKRSNSRKK , what is its reported Percent cleavage?
A. 0%
